# ASSAY NAME: Mouse PK analysis (blood/plasma concentration after oral administration)
# Type: in vivo
# STUDY CONDITIONS: mouse; mice, oral, plasma
ASSAY METRIC: AUC(0-t) (µM·h)
Give just the numeric value; µM·h need not be written.

[[record]]
compound = "C[C@@H](C(=O)N(C)c1ccc2cc(-c3n[nH]c4c3CCC(C)(C)C4)[nH]c2c1)N1CCN(C[C@H]2CCN(c3ccc4c(c3)n(C)c(=O)n4C3CCC(=O)NC3=O)C2)CC1 (some centres unmarked) [Compound 5]"
result_value = 0.7

[[record]]
compound = "CN(C(=O)CN1CCC2(CC1)CCN(c1ccc3c(c1)C(=O)N(C1CCC(=O)NC1=O)C3=O)C2)c1ccc2cc(-c3n[nH]c4c3C[C@@H]3C(F)(F)[C@]3(C)C4)[nH]c2c1 (some centres unmarked) [Compound 72]"
result_value = 0.02

[[record]]
compound = "C[C@@H](C(=O)N(C)c1ccc2cc(-c3n[nH]c4c3CCC(C)(C)C4)[nH]c2c1)N1CCN(CC2CCN(c3cccc4c3n(C)c(=O)n4C3CCC(=O)NC3=O)CC2)CC1 (some centres unmarked) [Compound 3]"
result_value = 1.99

[[record]]
compound = "Cn1c(=O)n([C@@H]2CCC(=O)NC2=O)c2cccc(N3CCC(CN4CCN(C(=O)c5ccc6cc(-c7n[nH]c8c7CCC(C)(C)C8)[nH]c6c5)CC4)CC3)c21 [Compound 48]"
result_value = 8.42


Kindly review the next compound as well.
INPUT: Let me know recorded AUC(0-t) for Cn1c(=O)n(C2CCC(=O)NC2=O)c2cccc(N3CCC(CN4CCC5(CC4)CCN(c4ccc6cc(-c7n[nH]c8c7CCC(C)(C)C8)[nH]c6c4)C5=O)CC3)c21 (centres unmarked) [Compound 13] , thanks.
OUTPUT: 0.927
